biological target: human-derived recombinant BTK protein (Homo sapiens, UniProt Q06187); assay: BTK activity inhibition assay (HTRF in vitro kinase assay); settings: 40 μM ATP, 0.2 ng/μL BTK
Sequence (Q06187 whole entry): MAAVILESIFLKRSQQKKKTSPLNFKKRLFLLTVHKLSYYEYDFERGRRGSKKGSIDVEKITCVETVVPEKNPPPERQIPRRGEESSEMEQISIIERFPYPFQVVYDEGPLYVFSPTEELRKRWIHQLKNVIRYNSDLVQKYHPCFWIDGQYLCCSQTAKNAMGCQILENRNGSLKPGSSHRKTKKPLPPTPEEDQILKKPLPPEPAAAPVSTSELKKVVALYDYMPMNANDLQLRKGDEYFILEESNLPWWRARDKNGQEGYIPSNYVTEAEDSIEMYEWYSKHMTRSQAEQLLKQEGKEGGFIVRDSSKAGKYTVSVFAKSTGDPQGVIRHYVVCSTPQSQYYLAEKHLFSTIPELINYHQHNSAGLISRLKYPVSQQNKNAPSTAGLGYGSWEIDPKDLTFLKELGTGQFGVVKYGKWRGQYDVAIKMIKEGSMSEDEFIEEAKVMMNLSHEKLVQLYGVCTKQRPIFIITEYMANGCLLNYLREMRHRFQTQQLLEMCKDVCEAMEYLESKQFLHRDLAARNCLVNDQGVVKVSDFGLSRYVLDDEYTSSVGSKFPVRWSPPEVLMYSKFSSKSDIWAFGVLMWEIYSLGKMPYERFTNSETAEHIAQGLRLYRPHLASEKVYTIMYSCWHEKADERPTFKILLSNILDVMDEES
recorded metric: IC50
Please provide the amount together with its unit, number first.

[
  {
    "compound": "COc1ccccc1C(=O)NCc1ccc(-c2nc(C3CCC(CO)OC3)n3ccnc(N)c23)cc1 (stereo not shown)",
    "recorded metric": "IC50",
    "result": "14 nM"
  },
  {
    "compound": "COc1ccc(F)cc1C(=O)NCc1ccc(-c2nn([C@H]3CC[C@@H](O)CC3)c3ccnc(N)c23)cc1",
    "recorded metric": "IC50",
    "result": "3.2 nM"
  },
  {
    "compound": "COc1ccc(F)cc1C(=O)NCc1ccc(-c2nn([C@H]3CC[C@H](O)CC3)c3ccnc(N)c23)cc1",
    "recorded metric": "IC50",
    "result": "2.3 nM"
  },
  {
    "compound": "COc1ccc(F)cc1C(=O)NCc1ccc(-c2nc(C3CCCC3)n3ncnc(N)c23)cc1",
    "recorded metric": "IC50",
    "result": "3 nM"
  },
  {
    "compound": "[2H]C([2H])([2H])Oc1ccc(F)cc1C(=O)NCc1ccc(-c2nc([C@H]3CC[C@H](CO)CC3)n3ncnc(N)c23)cc1",
    "recorded metric": "IC50",
    "result": "0.7 nM"
  }
]

Enquiry: Would you please give the reported IC50 of `COC(=O)C12CCC(c3nc(-c4ccc(CNC(=O)c5cc(F)ccc5OC)cc4)c4c(N)nccn34)(CC1)CC2` with human-derived recombinant BTK protein (Homo sapiens, UniProt Q06187)?
Return: 0.8 nM

Enquiry: Would you please give the reported IC50 of COc1ccc(F)cc1C(=O)NCc1ccc(-c2nc(C3CCOC3)n3ncnc(N)c23)cc1 (stereo not shown) with human-derived recombinant BTK protein (Homo sapiens, UniProt Q06187)?
Return: 6.3 nM

---

biological target: human recombinant BTK C481S protein (Homo sapiens, UniProt Q06187, C481S); assay: BTK C481S activity inhibition assay (HTRF in vitro kinase assay); conditions: 35 μM ATP, 1.5 ng/μL BTK C481S
Sequence (Q06187 whole entry C481S): as the sequence (Q06187 whole entry) above, with C481S counted along it
Measured IC50 by item
Answer format: numeric, nM implied, no suffix.

Below: 2 compounds and their reported IC50.
[
  {
    "compound": "Nc1nccn2c(C3CCC(CO)OC3)nc(-c3ccc(CNC(=O)c4ccccn4)cc3)c12 (stereo not drawn)",
    "value unit": "nM",
    "IC50": 498
  },
  {
    "compound": "COc1ccc(F)cc1C(=O)NCc1ccc(-c2nc(N3CCC(CO)CC3)n3ccnc(N)c23)cc1",
    "value unit": "nM",
    "IC50": 3.3
  }
]

# next compound below
Enquiry: Would you please give the reported IC50 of `COC(=O)C12CCC(c3nc(-c4ccc(CNC(=O)c5cc(F)ccc5OC)cc4)c4c(N)nccn34)(CC1)CC2` with human recombinant BTK C481S protein (Homo sapiens, UniProt Q06187, C481S)?
Return: 1.8

---

target: human recombinant BTK C481S protein (Homo sapiens, UniProt Q06187, C481S); assay: BTK C481S activity inhibition assay (HTRF in vitro kinase assay); settings: 35 μM ATP, 1.5 ng/μL BTK C481S
recorded metric: IC50
Please provide the amount together with its unit, number first.

[
  {
    "chemical structure": "COc1ccc(F)cc1C(=O)NCc1ccc(-c2nc([C@H]3CC[C@H](CN)CC3)n3ccnc(N)c23)cc1",
    "result": "1.7 nM"
  },
  {
    "chemical structure": "COc1ccc(F)cc1C(=O)NCc1ccc(-c2nc([C@]3(C)CC[C@](C)(C(=O)OC)CC3)n3ccnc(N)c23)cc1",
    "result": "0.6 nM"
  },
  {
    "chemical structure": "COc1ccc(F)cc1C(=O)NCc1ccc(-c2nc([C@]3(C)CC[C@](C)(C(=O)O)CC3)n3ncnc(N)c23)cc1",
    "result": "1.6 nM"
  }
]

# next compound below
Enquiry: Quickly give me recorded IC50 for `COc1ccc(F)cc1C(=O)NCc1ccc(-c2nc([C@]3(C)CC[C@](C)(C(=O)O)CC3)n3ccnc(N)c23)cc1`
Return: 5.3 nM

---

target: human-derived recombinant BTK protein (Homo sapiens); assay: BTK activity inhibition assay (HTRF in vitro kinase assay); details: 40 μM ATP, 0.2 ng/μL BTK
Group membership follows IC50 per the scheme low interval = under 2 nM, middle interval = from 2 nM up to 5 nM, high interval = 5 nM and over

Illustrative cases are given below, each with its answer.
[
  {
    "molecule": "COc1ccc(F)cc1C(=O)NCc1ccc(-c2nc([C@H]3CC[C@H](C(=O)O)CC3)n3ccnc(N)c23)cc1",
    "classification": "low interval"
  },
  {
    "molecule": "COc1ccc(F)cc1C(=O)NCc1ccc(-c2nc(N3CCC(CO)CC3)n3ccnc(N)c23)cc1",
    "classification": "middle interval"
  },
  {
    "molecule": "COc1ccc(F)cc1C(=O)NCc1ccc(-n2c(=O)n(C3CCOCC3)c3ccnc(N)c32)cc1",
    "classification": "high interval"
  },
  {
    "molecule": "COc1ccc(F)cc1C(=O)NCc1ccc(-c2nc([C@]3(C)CC[C@@](C)(C(=O)O)CC3)n3ccnc(N)c23)cc1",
    "classification": "middle interval"
  },
  {
    "molecule": "COc1ccc(F)cc1C(=O)NCc1ccc(-c2nc(C3CCC(CO)OC3)n3ccnc(N)c23)cc1 (stereo not drawn)",
    "classification": "low interval"
  }
]

Below: the item to evaluate.
Enquiry: Class? Entry: `COc1ccc(F)cc1C(=O)NCc1ccc(-c2nc([C@H]3CC[C@H](CO)CC3)n3ccnc(N)c23)cc1`
Return: middle interval

---

target: human-derived recombinant BTK protein (Homo sapiens, UniProt Q06187); assay: BTK activity inhibition assay (HTRF in vitro kinase assay); conditions: 40 μM ATP, 0.2 ng/μL BTK
Measured pIC50 by item
In textbook form, pIC50 equals minus log to base ten of the concentration in mol/L.

[
  {
    "compound": "COc1ccc(F)cc1C(=O)NCc1ccc(-c2nc([C@H]3CC[C@H](C(=O)O)CC3)n3ncnc(N)c23)cc1 [Compound 15]",
    "subject of test": "human-derived recombinant BTK protein (Homo sapiens, UniProt Q06187)",
    "numeric readout": 8.85
  },
  {
    "compound": "COc1ccc(F)cc1C(=O)NCc1ccc(-c2nc(N3CCOCC3)n3ncnc(N)c23)cc1 [Compound 45]",
    "subject of test": "human-derived recombinant BTK protein (Homo sapiens, UniProt Q06187)",
    "numeric readout": 8.03
  },
  {
    "compound": "COc1ccc(F)cc1C(=O)NCc1ccc(-c2nc(C34CCC(C(=O)O)(CC3)CC4)n3ccnc(N)c23)cc1 [Compound 34]",
    "subject of test": "human-derived recombinant BTK protein (Homo sapiens, UniProt Q06187)",
    "numeric readout": 9.05
  }
]

# next compound below
Enquiry: Would you please give the reported pIC50 of COc1ccc(F)cc1C(=O)NCc1ccc(-c2nc(C(C)C(F)(F)F)n3ncnc(N)c23)cc1 (stereo not shown) [Compound 26] with human-derived recombinant BTK protein (Homo sapiens, UniProt Q06187)?
Return: 8.42

---

target: human-derived recombinant BTK protein (Homo sapiens, UniProt Q06187); experiment: BTK activity inhibition assay (HTRF in vitro kinase assay); settings: 40 μM ATP, 0.2 ng/μL BTK
Measured log10(IC50) by item
On a log10 scale: recorded IC50, unit nM.

Below: 3 molecules and their reported log10(IC50).
[
  {
    "molecule": "COc1ccc(F)cc1C(=O)NCc1ccc(-c2nc(C34CCC(C(=O)O)(CC3)C4)n3ccnc(N)c23)cc1 [Compound 40]",
    "log10(IC50)": -0.40
  },
  {
    "molecule": "[2H]C([2H])([2H])Oc1ccc(F)cc1C(=O)NCc1ccc(-c2nc(C3CCCOC3)n3ccnc(N)c23)cc1 (stereo not shown) [Compound 25]",
    "log10(IC50)": 0.04
  },
  {
    "molecule": "COc1ccc(F)cc1C(=O)NCc1ccc(-c2nc(C3(C(F)(F)F)CC3)n3ccnc(N)c23)cc1 [Compound 42]",
    "log10(IC50)": 0.23
  }
]

Enquiry: Quickly give me recorded log10(IC50) for COc1ccc(F)cc1C(=O)NCc1ccc(-c2nc([C@@H]3CCN(C(=O)C4CC4)C3)n3ncnc(N)c23)cc1 [Compound 24]
Return: 0.59

Enquiry: Quickly give me recorded log10(IC50) for COc1ccc(F)cc1C(=O)NCc1ccc(-c2nc([C@@H]3CCNC3)n3ncnc(N)c23)cc1 [Compound 22]
Return: 2.19

Enquiry: Quickly give me recorded log10(IC50) for COc1ccc(F)cc1C(=O)NCc1ccc(-c2nc([C@H]3CC[C@H](CO)CC3)n3ncnc(N)c23)cc1 [Compound 14]
Return: 0.51

Enquiry: Quickly give me recorded log10(IC50) for COc1ccc(F)cc1C(=O)NCc1ccc(-c2nc(N3CCC(C)(C(=O)O)CC3)n3ccnc(N)c23)cc1 [Compound 27]
Return: 0.43

Source: patent US20230192691A1
